Biological target: mPRγ (Homo sapiens, UniProt Q9NXK6)
Construct: Full length and truncated mPRγ and mPRα were expressed in wild type cells grown in 2% galactose from the pGREG536 vector; expressed in transfected cells; host or cells: Saccharomyces cerevisiae (BY4742 wild type; also gpa mutants), GAL1-driven plasmids
Sequence (Q9NXK6 1-330): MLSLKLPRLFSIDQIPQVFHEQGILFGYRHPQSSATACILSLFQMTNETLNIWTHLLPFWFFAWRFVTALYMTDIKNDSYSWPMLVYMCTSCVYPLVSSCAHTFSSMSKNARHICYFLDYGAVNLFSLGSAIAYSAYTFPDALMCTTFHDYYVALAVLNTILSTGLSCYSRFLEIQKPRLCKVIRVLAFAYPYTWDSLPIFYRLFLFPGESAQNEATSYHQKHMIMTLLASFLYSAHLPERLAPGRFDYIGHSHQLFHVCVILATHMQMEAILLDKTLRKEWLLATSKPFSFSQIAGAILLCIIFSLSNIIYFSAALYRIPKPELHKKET
Experiment: FET3-lacZ reporter repression in yeast expressing mPRγ
Assay type: cell-based
Conditions: mPRγ; progesterone in the presence of 10 μM testosterone
RECORDED_METRIC: EC50 (nM)
Value expressed in nM; do not type the unit.

Ask: Consider the molecule shown here: CC(=O)[C@H]1CC[C@H]2[C@@H]3CCC4=CC(=O)CC[C@]4(C)[C@H]3CC[C@]12C What is its recorded EC50?
Reply: 10.7

###

Molecular target: PAQR9 (Homo sapiens, UniProt Q6ZVX9)
Sequence (Q6ZVX9 1-377): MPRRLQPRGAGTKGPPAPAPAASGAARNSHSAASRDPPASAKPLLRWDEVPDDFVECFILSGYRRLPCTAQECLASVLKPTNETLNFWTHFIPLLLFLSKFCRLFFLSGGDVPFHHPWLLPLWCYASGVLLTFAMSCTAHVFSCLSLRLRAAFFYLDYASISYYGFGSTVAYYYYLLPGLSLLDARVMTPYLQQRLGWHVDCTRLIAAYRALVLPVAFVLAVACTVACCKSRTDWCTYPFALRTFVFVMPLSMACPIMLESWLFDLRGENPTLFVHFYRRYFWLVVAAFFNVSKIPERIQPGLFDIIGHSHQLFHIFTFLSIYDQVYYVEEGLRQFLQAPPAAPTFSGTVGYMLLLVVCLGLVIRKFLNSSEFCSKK
Assay: FET3-lacZ reporter repression in yeast expressing PAQR9
Conditions: PAQR9, Table 3
RECORDED_METRIC: EC50 (nM)
Value expressed in nM; do not type the unit.

Ask: Give recorded EC50 with PAQR9 (Homo sapiens, UniProt Q6ZVX9) for the following molecule: CC(=O)[C@H]1CC[C@H]2[C@@H]3CCC4=CC(=O)CC[C@]4(C)[C@H]3CC[C@]12C
Reply: 13.8

###

Target: mPRγ (Homo sapiens, UniProt Q9NXK6)
Construct: Full length and truncated mPRγ and mPRα were expressed in wild type cells grown in 2% galactose from the pGREG536 vector; expressed in transfected cells; host or cells: Saccharomyces cerevisiae (BY4742 wild type; also gpa mutants), GAL1-driven plasmids
Sequence (Q9NXK6 1-330): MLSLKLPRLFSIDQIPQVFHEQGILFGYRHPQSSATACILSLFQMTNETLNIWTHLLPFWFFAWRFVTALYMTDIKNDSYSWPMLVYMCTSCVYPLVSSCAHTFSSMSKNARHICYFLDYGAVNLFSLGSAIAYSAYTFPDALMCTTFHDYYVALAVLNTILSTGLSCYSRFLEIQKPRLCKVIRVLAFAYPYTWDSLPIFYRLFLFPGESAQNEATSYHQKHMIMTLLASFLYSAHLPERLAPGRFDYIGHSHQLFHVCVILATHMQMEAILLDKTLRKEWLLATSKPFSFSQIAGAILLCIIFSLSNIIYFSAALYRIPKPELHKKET
Assay: FET3-lacZ reporter repression in yeast expressing mPRγ
Assay type: cell-based
Conditions: mPRγ column of Table 4; ligand alone
RECORDED_METRIC: pEC50
The quantity pEC50 is defined as the negative base-10 logarithm of the molar concentration.

CC#C[C@]1(O)CC[C@H]2[C@@H]3CCC4=CC(=O)CCC4=C3[C@@H](c3ccc(N(C)C)cc3)C[C@@]21C [RU-486, Mifepristone] | 5.17
CC(=O)[C@H]1CC[C@H]2[C@@H]3CCC4=CC(=O)CC[C@]4(C)[C@H]3CC[C@]12C [Progesterone, progesterone] | 8.96

Let's switch to this compound now.
Ask: Consider the compound shown here: CC(=O)[C@@]1(O)CC[C@H]2[C@@H]3CCC4=CC(=O)CC[C@]4(C)[C@H]3CC[C@@]21C [17α-hydroxyprogesterone] What is its recorded pEC50?
Reply: 8.03
